Reference for the values: PubChem BioAssay AID1963968

- Tested on: 945468-187-T-J3-PDC spheroids with HUVEC/MSC, viability
- Procedure Summary: Anticancer human tumor 945468-187-T-J3-PDC patient-derived rectal carcinoma cell line growth inhibition [PI3K]
- Conditions: curve of first compound; second compound 0.316 µM

{"columns": ["Compound", "IC50"],
 "data": [
  ["Cn1nccc1Nc1nccc(-c2ccn(C(CO)c3ccc(Cl)c(F)c3)c(=O)c2)n1 (stereo unspecified) + COc1c(OCCCN2CCOCC2)ccc2c3n(c(=NC(=O)c4cnc(N)nc4)nc12)CCN3", "< 0.0316 µM"],
  ["CC1(C)CCC(CN2CCN(c3ccc(C(=O)NS(=O)(=O)c4ccc(NCC5CCOCC5)c([N+](=O)[O-])c4)c(Oc4cnc5[nH]ccc5c4)c3)CC2)=C(c2ccc(Cl)cc2)C1 + COc1c(OCCCN2CCOCC2)ccc2c3n(c(=NC(=O)c4cnc(N)nc4)nc12)CCN3", "< 0.0316 µM"],
  ["CCCS(=O)(=O)Nc1ccc(F)c(C(=O)c2c[nH]c3ncc(-c4ccc(Cl)cc4)cc23)c1F + CC(Nc1ccc2c(c1)OCCn1cc(N3C(=O)OCC3C(F)F)nc1-2)C(N)=O", "6.37 µM"],
  ["CCN1CCN(Cc2ccc(Nc3ncc(F)c(-c4cc(F)c5nc(C)n(C(C)C)c5c4)n3)nc2)CC1 + CC(Nc1ncnc2nc[nH]c12)c1cc2cccc(Cl)c2c(=O)n1-c1ccccc1", "> 1 µM"],
  ["CCCS(=O)(=O)Nc1ccc(F)c(C(=O)c2c[nH]c3ncc(-c4ccc(Cl)cc4)cc23)c1F + Cc1nc(NC(=O)N2CCCC2C(N)=O)sc1-c1ccnc(C(C)(C)C(F)(F)F)c1", "8.19 µM"],
  ["CC(C)NCC(C(=O)N1CCN(c2ncnc3c2C(C)CC3O)CC1)c1ccc(Cl)cc1 (stereo unspecified) + CC(Nc1ccc2c(c1)OCCn1cc(N3C(=O)OCC3C(F)F)nc1-2)C(N)=O", "0.91 µM"]
]}

* * *

Reported viability, T/C values are given for each entry in this list.
- System: 945468-187-T-J3-PDC spheroids with HUVEC/MSC, viability
- Procedure Summary: Anticancer human tumor 945468-187-T-J3-PDC cell line growth inhibition [PI3K];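 note: spheroids exposed to agents for 7 days before viability read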;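 for viability, T/C: 100% = DMSO vehicle control viability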
- Conditions: second compound 0.316 µM; first compound 0.0316 µM; stronger effect = lower value

{"columns": ["Compound", "viability, T/C, %"],
 "data": [
  ["C=CC(=O)N1CCN(c2nc(=O)n(-c3c(C)ccnc3C(C)C)c3nc(-c4c(O)cccc4F)c(F)cc23)C(C)C1 (stereo not drawn) + COc1c(OCCCN2CCOCC2)ccc2c3n(c(=NC(=O)c4cnc(N)nc4)nc12)CCN3", 20.3],
  ["CCCS(=O)(=O)Nc1ccc(F)c(C(=O)c2c[nH]c3ncc(-c4ccc(Cl)cc4)cc23)c1F + COc1c(OCCCN2CCOCC2)ccc2c3n(c(=NC(=O)c4cnc(N)nc4)nc12)CCN3", 18.8],
  ["Cn1ncnc1[C@H]1c2n[nH]c(=O)c3cc(F)cc(c23)N[C@@H]1c1ccc(F)cc1 + CC(Nc1ncnc2nc[nH]c12)c1cc2cccc(Cl)c2c(=O)n1-c1ccccc1", 88],
  ["Cn1ncnc1[C@H]1c2n[nH]c(=O)c3cc(F)cc(c23)N[C@@H]1c1ccc(F)cc1 + Cc1nc(NC(=O)N2CCCC2C(N)=O)sc1-c1ccnc(C(C)(C)C(F)(F)F)c1", 115],
  ["CC(C)n1nc(-c2ccc3oc(N)nc3c2)c2c(N)ncnc21 + CC(Nc1ccc2c(c1)OCCn1cc(N3C(=O)OCC3C(F)F)nc1-2)C(N)=O", 45.2],
  ["CC(=O)c1c(C)c2cnc(Nc3ccc(N4CCNCC4)cn3)nc2n(C2CCCC2)c1=O + COc1c(OCCCN2CCOCC2)ccc2c3n(c(=NC(=O)c4cnc(N)nc4)nc12)CCN3", 19.6],
  ["CC1(C)CCC(CN2CCN(c3ccc(C(=O)NS(=O)(=O)c4ccc(NCC5CCOCC5)c([N+](=O)[O-])c4)c(Oc4cnc5[nH]ccc5c4)c3)CC2)=C(c2ccc(Cl)cc2)C1 + COc1c(OCCCN2CCOCC2)ccc2c3n(c(=NC(=O)c4cnc(N)nc4)nc12)CCN3", 22.1],
  ["CC(C)NCC(C(=O)N1CCN(c2ncnc3c2C(C)CC3O)CC1)c1ccc(Cl)cc1 (stereo not drawn) + CC(Nc1ccc2c(c1)OCCn1cc(N3C(=O)OCC3C(F)F)nc1-2)C(N)=O", 101]
]}
